# key: entry, value: ΔHR 2 hours
# System: Spontaneously Hypertensive rat
# ASSAY_OVERVIEW: antihypertensive activity, Spontaneously Hypertensive Rat (Table II)
# Type: in vivo
# CONDITION_NOTES: SHR; 30 mg/kg oral
Where a name gives a salt, the structure may show the parent alone.
Output spec: scalar in beats per minute, unitless text.

Check out these entries, answers already filled in.
Cl.NS(=O)(=O)c1cc2c(cc1Cl)CN(CCCN1CCN(C(=O)c3ccccc3)CC1)C2=O.O = -32
COc1ccccc1N1CCN(CCCN2Cc3cc(Cl)c(S(N)(=O)=O)cc3C2=O)CC1 = 16
NS(=O)(=O)c1cc2c(cc1Cl)CN(CCCN1CCN(C(=O)c3ccc(F)cc3)CC1)C2=O = 2
COc1ccccc1N1CCN(CCN2Cc3cc(Cl)c(S(N)(=O)=O)cc3C2=O)CC1 = 10
COc1ccccc1N1CCN(CCCCN2Cc3cc(Cl)c(S(N)(=O)=O)cc3C2=O)CC1 = -2
Cc1ccccc1N1CCN(CCCN2Cc3cc(Cl)c(S(N)(=O)=O)cc3C2=O)CC1 = -36
NS(=O)(=O)c1cc2c(cc1Cl)CN(CCCN1CCN(c3cccc(C(F)(F)F)c3)CC1)C2=O [Example IX, hydrochloride hemihydrate] = 6
NS(=O)(=O)c1cc2c(cc1Cl)CN(CCCN1CCN(Cc3ccccc3)CC1)C2=O = -6
NS(=O)(=O)c1cc2c(cc1Cl)CN(CCCN1CCN(c3cccc(Cl)c3)CC1)C2=O [Example II, hydrochloride hemihydrate] = -18

Continue with the compound presented below.
Please report the measured ΔHR 2 hours for Cl.N#Cc1cccnc1N1CCN(CCCN2Cc3cc(Cl)c(S(N)(=O)=O)cc3C2=O)CC1
6

The reported measurements were obtained from patent US4585773A.
